Ki overview
# Tested On: human PDE2A1 (Homo sapiens)
# Construct: GST; purchased BPS Bioscience (San Diego, Calif.) 60020; host or cells: insect cells
# Sequence (O00408 1-920 isoform O00408-2): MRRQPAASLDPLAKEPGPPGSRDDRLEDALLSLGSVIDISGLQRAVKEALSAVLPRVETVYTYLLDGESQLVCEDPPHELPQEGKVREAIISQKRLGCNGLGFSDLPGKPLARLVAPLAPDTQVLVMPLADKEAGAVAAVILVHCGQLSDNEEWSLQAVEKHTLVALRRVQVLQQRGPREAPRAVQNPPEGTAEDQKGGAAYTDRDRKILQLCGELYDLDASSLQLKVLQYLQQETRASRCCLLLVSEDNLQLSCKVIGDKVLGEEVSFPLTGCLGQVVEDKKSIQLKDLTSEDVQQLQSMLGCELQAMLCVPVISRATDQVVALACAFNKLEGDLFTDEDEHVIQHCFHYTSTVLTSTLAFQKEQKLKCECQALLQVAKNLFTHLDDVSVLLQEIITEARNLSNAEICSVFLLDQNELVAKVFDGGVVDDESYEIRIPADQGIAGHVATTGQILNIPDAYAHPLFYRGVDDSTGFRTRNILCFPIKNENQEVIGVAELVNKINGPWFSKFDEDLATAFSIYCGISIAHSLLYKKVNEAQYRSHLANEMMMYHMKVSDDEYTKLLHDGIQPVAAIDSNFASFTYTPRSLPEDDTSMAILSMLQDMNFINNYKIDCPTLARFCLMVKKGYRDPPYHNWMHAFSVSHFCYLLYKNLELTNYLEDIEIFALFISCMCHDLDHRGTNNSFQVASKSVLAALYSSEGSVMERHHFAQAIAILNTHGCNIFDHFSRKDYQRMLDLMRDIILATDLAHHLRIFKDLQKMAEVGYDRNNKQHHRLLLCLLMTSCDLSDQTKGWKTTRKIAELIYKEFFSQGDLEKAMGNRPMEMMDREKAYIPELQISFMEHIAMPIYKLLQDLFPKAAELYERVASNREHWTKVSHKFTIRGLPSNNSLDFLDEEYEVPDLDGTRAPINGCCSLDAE
# Method: IMAP FP PDE assay, human PDE2A1
# Type: biochemical
# Condition: Lab B; read-out: Human PDE2 Ki (nM) Lab B
Value expressed in nM; do not type the unit.

{"columns": ["Compound", "Data Value"],
 "data": [
  ["CC(c1ccc(C(F)(F)F)cc1)n1nc(C#N)c2c(=O)[nH]c(CC3CC3)nc21 (single isomer, unassigned) [Example 347]", 1030]
]}

Problem: Given the entry Cc1nc2c(c(-c3cn[nH]c3)nn2C(C)c2ccc(C(F)(F)F)cc2)c(=O)[nH]1 (single isomer, unassigned) [Example 238] , report its measured Ki.
Solution: 48

Problem: Note, next up: Cc1nc2c(c(C#N)nn2C(C)c2ccc(C(F)(F)F)cc2)c(=O)[nH]1 (single isomer, unassigned) [Example 252]
Solution: 16
